molecular target: Adenosine receptor A2a (Homo sapiens); assay: Displacement of [3H]SCH-58261 from human recombinant adenosine A2A receptor expressed in HEK293 cells; format: cell-based
Sequence (P29274 whole entry): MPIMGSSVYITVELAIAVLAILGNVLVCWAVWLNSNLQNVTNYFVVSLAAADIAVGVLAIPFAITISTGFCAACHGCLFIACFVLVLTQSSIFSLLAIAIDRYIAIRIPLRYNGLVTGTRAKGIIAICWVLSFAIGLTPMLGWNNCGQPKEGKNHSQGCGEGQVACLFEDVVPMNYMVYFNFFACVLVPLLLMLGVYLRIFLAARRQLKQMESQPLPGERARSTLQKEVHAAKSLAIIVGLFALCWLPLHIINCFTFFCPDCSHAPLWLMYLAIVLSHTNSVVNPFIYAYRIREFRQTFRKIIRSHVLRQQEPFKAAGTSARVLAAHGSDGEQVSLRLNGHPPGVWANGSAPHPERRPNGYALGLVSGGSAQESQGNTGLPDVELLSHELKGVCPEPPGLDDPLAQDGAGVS
property-measured: pKi
pKi (log units): -log10 of the concentration in mol/L.

Use these answered entries as a reference point.
molecule	data-value
O=C(c1ccccc1)c1sc(N(Cc2ccccc2)Cc2ccco2)nc1-c1ccco1	7.06
CNc1nc(-c2ccco2)c(C(=O)c2ccccc2)s1	7.17

## Input Data request, read-out pKi, for CN(Cc1ccccc1)c1nc(-c2ccco2)c(C(=O)c2ccccc2)s1
## Output 5.55

## Input Okay, and O=C(c1ccccc1)c1sc(NCCc2cccs2)nc1-c1ccco1 ?
## Output 7.92

## Input Okay, and O=C(c1ccccc1)c1sc(NCCc2ccc3c(c2)OCO3)nc1-c1ccco1 ?
## Output 7.21
